system: H9; assay: The compound was evaluated for anti-HIV activity using T cell line (H9); conditions: Homo sapiens
pEC50: −log10 of the molar value.
readout-type: pEC50

Lab note: need pEC50 for COc1cc2c(cc1OC)[C@@H](Nc1ccc([N+](=O)[O-])cc1)[C@H]1COC(=O)[C@@H]1[C@@H]2c1cc(OC)c(O)c(OC)c1 on H9, anyone have it?
> 9.00

* * *

test: Therapeutic index (IC50/EC50); assay type: cell-based; conditions: human, H9 cells; read-out: Therapeutic index
Field: selectivity ratio. Provide a value for each of the compounds that follow.
Respond with the number and no other words.

Data request, read-out selectivity ratio, for COc1cc([C@@H]2c3cc4c(cc3C(=O)[C@H]3COC(=O)[C@H]23)OCO4)cc(O)c1O
3

Data request, read-out selectivity ratio, for COc1cc([C@@H]2c3cc4c(cc3[C@@H](Nc3ccc(F)cc3)[C@H]3COC(=O)[C@H]23)OCO4)cc(OC)c1OC
3.3

Data request, read-out selectivity ratio, for COc1cc2c(cc1OC)[C@@H](Nc1ccc(F)cc1)[C@H]1COC(=O)[C@@H]1[C@@H]2c1cc(OC)c(OC)c(OC)c1
4.4

Data request, read-out selectivity ratio, for COc1cc([C@@H]2c3cc4c(cc3[C@@H](Sc3ccc(O)cc3)[C@H]3COC(=O)[C@H]23)OCO4)cc(OC)c1O
2.1

Data request, read-out selectivity ratio, for COc1cc([C@@H]2c3cc4c(cc3[C@@H](Oc3ccc(F)cc3)[C@H]3COC(=O)[C@H]23)OCO4)cc(OC)c1O
1.8

Data request, read-out selectivity ratio, for COc1cc([C@@H]2c3cc4c(cc3[C@@H](Nc3ccc([N+](=O)[O-])cc3)[C@H]3COC(=O)[C@H]23)OCO4)cc(OC)c1O
55.8

* * *

Field: selectivity ratio. Provide a value for each of the compounds that follow.
test: Therapeutic index (IC50/EC50); type: cell-based; details: human, H9 cells; read-out: Therapeutic index

Data request, read-out selectivity ratio, for COc1cc2c(cc1OC)[C@@H](Nc1ccc(C#N)cc1)[C@H]1COC(=O)[C@@H]1[C@@H]2c1cc(OC)c(O)c(OC)c1
> 141

Data request, read-out selectivity ratio, for COc1cc([C@@H]2c3cc4c(cc3[C@@H](Nc3ccc(F)cc3)[C@H]3COC(O)[C@H]23)OCO4)cc(OC)c1O (some centres undefined)
4

Data request, read-out selectivity ratio, for COc1cc2c(cc1OC)[C@@H](Nc1ccc(F)cc1)[C@H]1COC(=O)[C@@H]1[C@@H]2c1cc(OC)c(O)c(OC)c1
> 166

Data request, read-out selectivity ratio, for CCOC(=O)c1ccc(N[C@@H]2c3cc(OC)c(OC)cc3[C@@H](c3cc(OC)c(O)c(OC)c3)[C@H]3C(=O)OC[C@@H]32)cc1
> 120
